In this section we review reported pIC50 values for a set of compounds.
System: Recombinant human LOXL3 (lysyl oxidase like 3) (Homo sapiens, UniProt P58215)
Sequence (P58215 26-753): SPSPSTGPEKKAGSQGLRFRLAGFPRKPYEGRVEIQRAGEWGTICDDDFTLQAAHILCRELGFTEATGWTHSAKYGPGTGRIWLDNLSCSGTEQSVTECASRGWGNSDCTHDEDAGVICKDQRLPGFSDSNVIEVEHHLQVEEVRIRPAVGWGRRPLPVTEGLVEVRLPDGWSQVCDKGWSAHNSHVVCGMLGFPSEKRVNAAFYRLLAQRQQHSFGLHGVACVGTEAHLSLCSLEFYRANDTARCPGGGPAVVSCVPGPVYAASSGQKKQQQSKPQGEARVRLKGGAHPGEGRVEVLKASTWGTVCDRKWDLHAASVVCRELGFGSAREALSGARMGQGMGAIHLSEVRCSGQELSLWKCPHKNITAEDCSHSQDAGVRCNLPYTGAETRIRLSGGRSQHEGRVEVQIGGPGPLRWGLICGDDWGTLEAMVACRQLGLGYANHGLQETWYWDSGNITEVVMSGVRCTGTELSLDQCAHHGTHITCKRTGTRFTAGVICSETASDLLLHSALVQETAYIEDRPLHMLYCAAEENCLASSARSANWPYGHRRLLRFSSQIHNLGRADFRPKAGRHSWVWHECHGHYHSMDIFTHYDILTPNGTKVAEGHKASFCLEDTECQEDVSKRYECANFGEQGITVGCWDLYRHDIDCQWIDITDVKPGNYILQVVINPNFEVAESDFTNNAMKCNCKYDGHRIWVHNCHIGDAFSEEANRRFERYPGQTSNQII
Procedure Details: LOXL3 inhibition assay (fluorometric, cadaverine/Amplex Red/HRP)
Measurement Context: IC50 class; recombinant human LOXL3, cadaverine substrate; read-out: Activity Range LOXL3
pIC50: −log10 of the molar value.
Parameter: pIC50

[
  {
    "Compound": "CS(=O)(=O)N1C[C@H](Oc2cccc(CN)c2)C[C@H](c2ccccc2F)C1 (racemic) [Example 70, 2,2,2-trifluoroacetate]",
    "Observed": "4.52 to 6.00"
  },
  {
    "Compound": "CS(=O)(=O)[C@@H]1C[C@@H](S(=O)(=O)c2cccc(CN)c2)CN(c2ccccc2)C1 (racemic) [Example 79]",
    "Observed": "4.52 to 6.00"
  },
  {
    "Compound": "CN(C)C(=O)[C@H]1C[C@@H](C2CCCCC2)CN(S(=O)(=O)c2cccc(CN)c2)C1 (relative stereo) [Example 138, 2,2,2-trifluoroacetate]",
    "Observed": "4.52 to 6.00"
  }
]

###

In this section we review reported pIC50 values for a set of molecules.
System: Bovine lysyl oxidase (LOX) (Bos taurus)
Sequence (P33072 170-418): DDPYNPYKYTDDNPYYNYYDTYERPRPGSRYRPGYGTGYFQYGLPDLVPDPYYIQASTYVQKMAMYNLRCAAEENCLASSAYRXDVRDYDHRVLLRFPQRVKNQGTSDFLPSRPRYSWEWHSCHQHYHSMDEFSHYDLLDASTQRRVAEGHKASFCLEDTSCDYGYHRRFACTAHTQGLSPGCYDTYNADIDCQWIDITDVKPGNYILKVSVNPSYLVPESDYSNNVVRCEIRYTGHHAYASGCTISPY
pIC50: −log10 of the molar value.

[
  {
    "Molecule": "CN1CCN(C(=O)[C@H]2C[C@@H](c3ccccc3)CN(S(=O)(=O)c3ccc(CN)s3)C2)CC1 (racemic) [Example 17, 2,2,2-trifluoroacetate]",
    "pIC50": "6.00 to 6.30"
  },
  {
    "Molecule": "CN(C)C(=O)[C@H]1C[C@@H](C2CCCCC2)CN(S(=O)(=O)c2cc(CN)ccn2)C1 (racemic) [Example 144, 2,2,2-trifluoroacetate]",
    "pIC50": "4.52 to 6.00"
  },
  {
    "Molecule": "NCc1ccc(S(=O)(=O)N2C[C@@H](C(=O)N3CCS(=O)(=O)CC3)C[C@@H](C3CCCCC3)C2)s1 (racemic) [Example 121, 2,2,2-trifluoroacetate]",
    "pIC50": "≥ 6.30"
  },
  {
    "Molecule": "NCc1cccc(S(=O)(=O)N2C[C@@H](C(=O)N3CCOCC3)C[C@@H](C3CCCCC3)C2)c1 (racemic) [Example 139]",
    "pIC50": "< 4.52"
  },
  {
    "Molecule": "CS(=O)(=O)N1CCN(C(=O)[C@@H]2C[C@@H](c3ccccc3)CN(S(=O)(=O)c3cccc(CN)c3)C2)CC1 (racemic) [Example 84, 2,2,2-trifluoroacetate]",
    "pIC50": "4.52 to 6.00"
  },
  {
    "Molecule": "CS(=O)(=O)N1C[C@H](Oc2cc(CN)ccc2F)C[C@H](c2ccccc2)C1 (racemic) [Example 69, 2,2,2-trifluoroacetate]",
    "pIC50": "< 4.52"
  }
]
